- procedure-summary: Antiinflammatory activity in FMLP/CB activated human neutrophils assessed as inhibition of superoxide generation by ferricytochrome c reduction based spectrophotometry
- Format: functional, cell-based, Neutrophil
- measurement-context: Homo sapiens, Neutrophil; read-out: IC50
pIC50: −log10 of the molar value.
endpoint-name: pIC50

- C=C1C(=O)[C@@]23[C@H](O)C[C@@H]4C(C)(C)CCC[C@@]4(C)[C@@H]2CC[C@@H]1[C@H]3O: 5.71
- CC(=O)OC[C@@]1(C)CCC[C@]2(C)[C@@H]1CC[C@]13C=C(C(=O)O)[C@H](C[C@H](OC(C)=O)[C@H]12)C3 [CROTONKININ D]: 5.53
- C=C1C(=O)[C@]23C[C@H]1CC[C@H]2[C@]1(C)CCC[C@](C)(COC(C)=O)[C@H]1C[C@H]3O: 5.81
- C=C1C(=O)[C@@]23[C@@H]4CC5=C(C(=O)CC5(C)C)[C@@](C)(O4)[C@@H]2CC[C@@H]1[C@H]3O [CROTONKINENSIN A]: 5.69
- COCC1C(=O)[C@]23C[C@H]1CC[C@H]2[C@]1(C)CCC[C@](C)(COC(C)=O)[C@H]1C[C@H]3O (stereo partly specified) [CROTONKININ G]: 5.37
- C=C1C(=O)[C@@]23CC[C@H]4[C@@](C)(CCC[C@]4(C)C(=O)O)[C@@H]2CC[C@H]1C3: 5.49
